Parameter polymerase ribozyme fitness (log ratio): see the listing below.
B1: TPR 5TU (parent)
chain: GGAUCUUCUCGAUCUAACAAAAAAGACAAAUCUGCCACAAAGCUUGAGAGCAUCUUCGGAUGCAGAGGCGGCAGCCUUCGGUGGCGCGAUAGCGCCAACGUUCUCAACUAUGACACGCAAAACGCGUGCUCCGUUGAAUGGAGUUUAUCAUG

variants of: B1; test: polymerase ribozyme fitness, log enrichment relative to wild type (log ratio); higher = more active; in vitro selection for triplet polymerase activity
Fewer inactive variants are shown than the library holds.
Answer field: number only, no words.

Consider the following illustrative entries.
A52G U102G G124A | -3.08
U15C G84U | -0.83
A21C C87U A147U | 0.884
U61G C96U U144G | -1.1
G86A A150G | -3.09

For the next question, use this variant.
According to the records, this variant A52G C69A displays polymerase ribozyme fitness (log ratio) of -3.71

Just for reference, the RNAGym collection of RNA variant scans (doi:10.1073/pnas.2313332121) is where these values come from.
